# credit: paper PMC7048285

- system-name: human recombinant melanocortin MC4 receptor (Homo sapiens)
- Construct: host or cells: frozen, irradiated CHO-K1 cells
- assay-procedure: Functional cellular cAMP TR-FRET assay, agonist mode
- Type: cell-based
- recorded-conditions: agonist IC50 divided by clinical Cmax (unbound)
Agonist Fold-margin on human Cmax (unbound) reference

response.value for C[C@H]1CO[C@@H]2Cn3cc(C(=O)NCc4ccc(F)cc4F)c(=O)c(O)c3C(=O)N12 (field: Agonist Fold-margin on human Cmax (unbound)) = >1200 fold

Reported Agonist Fold-margin on human Cmax (unbound) of COc1cc2c(cc1Cc1cccc(Cl)c1F)c(=O)c(C(=O)O)cn2[C@H](CO)C(C)C : >13000 fold

Form field Agonist Fold-margin on human Cmax (unbound), entry O=C(NCc1c(F)cc(F)cc1F)c1cn2c(c(O)c1=O)C(=O)N1[C@H]3CC[C@H](C3)O[C@@H]1C2 : >2900 fold

Short answer for C[C@@H]1CCO[C@H]2Cn3cc(C(=O)NCc4ccc(F)cc4F)c(=O)c(O)c3C(=O)N12 : Agonist Fold-margin on human Cmax (unbound) was >1600 fold

----------
- assay-procedure: Human clinical Cmax at recommended clinical dosage
- Type: in vivo
- recorded-conditions: unbound (protein-free)
attribute-measured: Human efficacious unbound Cmax (nM)

Reference set (2 entries):
query-smiles	Human efficacious unbound Cmax (nM)
C[C@@H]1CCO[C@H]2Cn3cc(C(=O)NCc4ccc(F)cc4F)c(=O)c(O)c3C(=O)N12	62
C[C@H]1CO[C@@H]2Cn3cc(C(=O)NCc4ccc(F)cc4F)c(=O)c(O)c3C(=O)N12	25

A = O=C(NCc1c(F)cc(F)cc1F)c1cn2c(c(O)c1=O)C(=O)N1[C@H]3CC[C@H](C3)O[C@@H]1C2
B = COc1cc2c(cc1Cc1cccc(Cl)c1F)c(=O)c(C(=O)O)cn2[C@H](CO)C(C)C
Hi! Which is lower in terms of Human efficacious unbound Cmax, the first one A or the second one B ? Please indicate the selected item by its label.
B

----------
- system-name: human recombinant melanocortin MC4 receptor (Homo sapiens, UniProt P32245)
- Construct: host or cells: frozen, irradiated CHO-K1 cells
- Sequence (P32245 whole entry): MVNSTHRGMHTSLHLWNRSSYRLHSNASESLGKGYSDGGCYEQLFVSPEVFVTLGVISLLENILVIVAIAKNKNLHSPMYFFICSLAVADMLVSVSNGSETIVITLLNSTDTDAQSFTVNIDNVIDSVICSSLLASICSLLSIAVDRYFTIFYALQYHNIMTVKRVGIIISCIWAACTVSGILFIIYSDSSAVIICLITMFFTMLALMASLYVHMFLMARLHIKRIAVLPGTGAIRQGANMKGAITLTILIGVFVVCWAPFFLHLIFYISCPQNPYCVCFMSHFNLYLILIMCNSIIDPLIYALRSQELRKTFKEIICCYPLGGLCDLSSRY
- assay-procedure: Functional cellular cAMP TR-FRET assay, antagonist mode (inhibition of 10 nM NDP-α-MSH response)
- Format: cell-based
attribute-measured: IC50 (µM)

I = COc1cc2c(cc1Cc1cccc(Cl)c1F)c(=O)c(C(=O)O)cn2[C@H](CO)C(C)C
II = C[C@@H]1CCO[C@H]2Cn3cc(C(=O)NCc4ccc(F)cc4F)c(=O)c(O)c3C(=O)N12
Just curious, which one has the larger IC50 reading, I or II ? Bench note: the answer is the label of the chosen record.
II

----------
- system-name: human MC4R (Homo sapiens, UniProt P32245)
- Sequence (P32245 whole entry): as above
- assay-procedure: Biochemical radioligand binding assay ([125I]NDP-α-MSH) on membranes of transfected CHO cells
- Parameters: host or cells: CHO cells (membrane homogenates)
- recorded-conditions: 100 µM test compound; % inhibition of [125I]NDP-α-MSH specific binding
attribute-measured: % inhibition of binding at 100 µM (%)

Solved entries:
query-smiles	system-name	units-label	% inhibition of binding at 100 µM
Cc1nnc(C(=O)NC(C)(C)c2nc(C(=O)NCc3ccc(F)cc3)c(O)c(=O)n2C)o1	human MC4R (Homo sapiens, UniProt P32245)	%	55
O=C(NCc1c(F)cc(F)cc1F)c1cn2c(c(O)c1=O)C(=O)N1[C@H]3CC[C@H](C3)O[C@@H]1C2	human MC4R (Homo sapiens, UniProt P32245)	%	89

1 = C[C@H]1CO[C@@H]2Cn3cc(C(=O)NCc4ccc(F)cc4F)c(=O)c(O)c3C(=O)N12
2 = COc1cc2c(cc1Cc1cccc(Cl)c1F)c(=O)c(C(=O)O)cn2[C@H](CO)C(C)C
Could you please tell me which of these two has the higher % inhibition of binding at 100 µM: 1 or 2 ? Indicate your choice by writing its label.
1

----------
- system-name: human MC4R (Homo sapiens, UniProt P32245)
attribute-measured: IC50 (µM)

Worked examples, 2 compounds total:
compound	attribute-measured	result-number
Cc1nnc(C(=O)NC(C)(C)c2nc(C(=O)NCc3ccc(F)cc3)c(O)c(=O)n2C)o1 [RAL, raltegravir]	IC50	78
C[C@H]1CO[C@@H]2Cn3cc(C(=O)NCc4ccc(F)cc4F)c(=O)c(O)c3C(=O)N12 [CAB, cabotegravir]	IC50	0.46

I = O=C(NCc1c(F)cc(F)cc1F)c1cn2c(c(O)c1=O)C(=O)N1[C@H]3CC[C@H](C3)O[C@@H]1C2 [BIC, bictegravir]
II = C[C@@H]1CCO[C@H]2Cn3cc(C(=O)NCc4ccc(F)cc4F)c(=O)c(O)c3C(=O)N12 [DTG, dolutegravir]
III = COc1cc2c(cc1Cc1cccc(Cl)c1F)c(=O)c(C(=O)O)cn2[C@H](CO)C(C)C [EVG, elvitegravir]
# sort list by recorded IC50, greatest to least Use the labels to give the ranking in the order requested.
III, I, II

----------
- system-name: human recombinant melanocortin MC4 receptor (Homo sapiens, UniProt P32245)
- Construct: host or cells: frozen, irradiated CHO-K1 cells
- assay-procedure: Functional cellular cAMP TR-FRET assay, agonist mode
- Assay type: cell-based
- recorded-conditions: cAMP increase relative to 3 μM NDP-α-MSH control; CHO-K1 cells
Reported IC50 values for the following molecules.

Value of measured IC50 for the entry O=C(NCc1c(F)cc(F)cc1F)c1cn2c(c(O)c1=O)C(=O)N1[C@H]3CC[C@H](C3)O[C@@H]1C2 : > 100 µM

So, C[C@H]1CO[C@@H]2Cn3cc(C(=O)NCc4ccc(F)cc4F)c(=O)c(O)c3C(=O)N12 ? Its IC50 was > 30 µM

Per the record, C[C@@H]1CCO[C@H]2Cn3cc(C(=O)NCc4ccc(F)cc4F)c(=O)c(O)c3C(=O)N12 has IC50 of > 100 µM

Note to self: IC50 recorded for Cc1nnc(C(=O)NC(C)(C)c2nc(C(=O)NCc3ccc(F)cc3)c(O)c(=O)n2C)o1 was > 300 µM

Recorded IC50 (molecule COc1cc2c(cc1Cc1cccc(Cl)c1F)c(=O)c(C(=O)O)cn2[C@H](CO)C(C)C ): > 300 µM

----------
- system-name: human recombinant melanocortin MC4 receptor (Homo sapiens, UniProt P32245)
- Construct: host or cells: frozen, irradiated CHO-K1 cells
- assay-procedure: Functional cellular cAMP TR-FRET assay, antagonist mode (inhibition of 10 nM NDP-α-MSH response)
- Assay type: cell-based
- recorded-conditions: inhibition of 10 nM NDP-α-MSH induced cAMP response; CHO-K1 cells
attribute-measured: IC50 (nM)
Give the value in nM but do not write nM after it.

Lookup result for agouti-related protein (SSRRCVRLHESCLGQQVPCCDPCATCYCRFFNAFCYCRKLGTAMNPCSRT; UniProt O00253 83-132, looked up) [AgRP] ; measured IC50: 12

----------
Measured IC50 values are reported for all entries that follow.
- system-name: human recombinant melanocortin MC4 receptor (Homo sapiens)
- Construct: host or cells: frozen, irradiated CHO-K1 cells
- assay-procedure: Functional cellular cAMP TR-FRET assay, antagonist mode (inhibition of 10 nM NDP-α-MSH response)
- Type: cell-based

The value of IC50 measured for the compound O=C(NCc1c(F)cc(F)cc1F)c1cn2c(c(O)c1=O)C(=O)N1[C@H]3CC[C@H](C3)O[C@@H]1C2 [BIC, bictegravir] turned out to be > 100 µM

Recorded result, C[C@H]1CO[C@@H]2Cn3cc(C(=O)NCc4ccc(F)cc4F)c(=O)c(O)c3C(=O)N12 [CAB, cabotegravir] , IC50: > 30 µM

Looking up Cc1nnc(C(=O)NC(C)(C)c2nc(C(=O)NCc3ccc(F)cc3)c(O)c(=O)n2C)o1 [RAL, raltegravir] , I found its IC50 recorded as > 300 µM
